Where these numbers come from: paper PMC12864922

# System name: TDP-43 (Homo sapiens, UniProt Q13148 1-414)
# Sequence (Q13148 whole entry): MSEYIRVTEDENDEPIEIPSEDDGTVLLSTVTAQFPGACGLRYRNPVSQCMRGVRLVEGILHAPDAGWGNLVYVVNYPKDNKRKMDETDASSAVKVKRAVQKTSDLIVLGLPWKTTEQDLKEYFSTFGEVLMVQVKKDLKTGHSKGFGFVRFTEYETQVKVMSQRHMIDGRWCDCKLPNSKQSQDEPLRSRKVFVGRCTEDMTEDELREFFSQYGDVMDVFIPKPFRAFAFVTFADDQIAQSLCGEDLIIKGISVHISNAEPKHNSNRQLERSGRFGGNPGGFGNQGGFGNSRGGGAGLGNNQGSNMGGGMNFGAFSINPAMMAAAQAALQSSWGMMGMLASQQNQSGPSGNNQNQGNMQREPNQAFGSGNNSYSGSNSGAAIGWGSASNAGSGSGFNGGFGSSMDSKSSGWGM
# Experiment: RNA Bind-n-Seq with designed 260-mer pool; 25 mM Tris-HCl, 150 mM KCl, 3 mM MgCl2, BSA (printed 500 mg/mL), 20 units/mL SUPERase IN; pH not stated; 500 nM RNA pool, 1 h, 4 C; TDP-43 5, 50, 500 nM; high values mean tight binding
# Settings: protein: recombinant; tags: SBP (GST cleaved off with PreScission; pGEX-GST-SBP)
Whole data set: some 9,900 sequences, median “r (bound/input frequency ratio)” near 0.7, cut for the highest 2% near 6.5. This excerpt belongs to a sample that is enriched for the highest values.
Recorded endpoint: binding signal

Below, 3 binders whose answers are already recorded.
INPUT: # binding signal lookup, item ENSMUSG00000022095.195|Fam160b2 (ssRNA) RNA: GGGAGUUCUACAGUCCGACGAUCGCUUCGAUAUCCGCAUGCUAAGCCCCUUUUGCUUCCUUUUCCUGCCCAUGCCACCUCUCGAAGCCGGGCACAGGUUGCCAGGAGGUGACAUGAAAGAGGAGGAAACUCCAUGACCUCUACAUCCCCCGCAGUCCUCCCAGCGGGGGAGGACUUCUCUGCUGCUCCGAAGAACAUCAUGCACUCCUGUGUGUGUGUGUGAGUGUGUGUGUGUGUGUGUGUGUGUGUGUGUGUGUAUGUGUGUGUAUAUGUGUGUGUGUGUGUGUAUGUGUGUGUGUGUGUGCUCUUGCGGUCGCACUAGUGUGGAAUUCUCGGGUGUCAAGG
OUTPUT: 9.34 R (bound/input frequency ratio)

INPUT: # binding signal lookup, item ENSMUSG00000061578.1482|Ksr2 (ssRNA) RNA: GGGAGUUCUACAGUCCGACGAUCGCUUCGAUAUCCGCAUGCUAGAUGGGUAGGUGGGUGGAUGCAUAGGCAAGUAGAUGAAUGAAUAUGUGGGUAGAAGGGUGAGUGGGUGGAUGAAUGGAUGGAUAGGUUGGUAGGUUAAUGUAUUCGUGGAUGGGUGAAUGGAUGGAUGGAUAGAUAGAUGGGAAGGUGGAUGGACAGAUGGAUGGAUGGAUAGAUAGAUGGACAGGUGGUUGGUGGAUAAAUGAGUGAAUGAUUAUGUUGAUAGAUAUGUGGGUAGGCUGAAUGGGUGAAUGGAUAGAUCCUCUUGCGGUCGCACUAGUGUGGAAUUCUCGGGUGUCAAGG
OUTPUT: 7 R (bound/input frequency ratio)

INPUT: # binding signal lookup, item ENSMUSG00000022095.196|Fam160b2 (ssRNA) RNA: GGGAGUUCUACAGUCCGACGAUCGCUUCGAUAUCCGCAUGCUAUUUUGCUUCCUUUUCCUGCCCAUGCCACCUCUCGAAGCCGGGCACAGGUUGCCAGGAGGUGACAUGAAAGAGGAGGAAACUCCAUGACCUCUACAUCCCCCGCAGUCCUCCCAGCGGGGGAGGACUUCUCUGCUGCUCCGAAGAACAUCAUGCACUCCUGUGUGUGUGUGUGAGUGUGUGUGUGUGUGUGUGUGUGUGUGUGUGUGUAUGUGUGUGUAUAUGUGUGUGUGUGUGUGUAUGUGUGUGUGUGUGUGUGAGUGCUCUUGCGGUCGCACUAGUGUGGAAUUCUCGGGUGUCAAGG
OUTPUT: 6.8 R (bound/input frequency ratio)

Next:
INPUT: # binding signal lookup, item ENSMUSG00000022095.197|Fam160b2 (ssRNA) RNA: GGGAGUUCUACAGUCCGACGAUCGCUUCGAUAUCCGCAUGCUAUUCCUUUUCCUGCCCAUGCCACCUCUCGAAGCCGGGCACAGGUUGCCAGGAGGUGACAUGAAAGAGGAGGAAACUCCAUGACCUCUACAUCCCCCGCAGUCCUCCCAGCGGGGGAGGACUUCUCUGCUGCUCCGAAGAACAUCAUGCACUCCUGUGUGUGUGUGUGAGUGUGUGUGUGUGUGUGUGUGUGUGUGUGUGUGUAUGUGUGUGUAUAUGUGUGUGUGUGUGUGUAUGUGUGUGUGUGUGUGUGAGUGAGUGUGCUCUUGCGGUCGCACUAGUGUGGAAUUCUCGGGUGUCAAGG
OUTPUT: 6.5 R (bound/input frequency ratio)
